# Tested on: MCF7 breast
# METHOD DESCRIPTION: NCI tumour cell line growth inhibition, 48 h; in the data active = GI50 below about 0.43 µM; inactive = the rest
# valid calls are class 1 (active), class 0 (inactive); nothing else

COMPOUND | CLASS LABEL
COc1ccc(C2CC(c3ccc(Nc4ccnc5cc(Cl)ccc45)cc3)=NN2C=O)cc1 (stereo unspecified) | class 0

Identify the outcome logged in this assay for the compound shown: "Cc1ccc2cccc(OC(=O)Nc3cccc(C(F)(F)F)c3)c2n1"
class 0

Identify the outcome logged in this assay for the compound shown: "N#CC(C#N)=C1CCOc2ccc(F)cc21"
class 0

Identify the outcome logged in this assay for the compound shown: "O=c1cnnc(N/N=C/c2ccccc2O)[nH]1"
class 1

Identify the outcome logged in this assay for the compound shown: "O=C(c1ccc(C(F)(F)F)c(Cl)c1)N(Cc1ccc(Cl)cc1)c1ccc(-c2cc(C(F)(F)F)[nH]n2)c(O)c1"
class 0

Identify the outcome logged in this assay for the compound shown: CCOC(=O)C1=C(C)NC(=O)NC1CN1C(=O)c2ccccc2C1=O (stereo unspecified)
class 0

----------
Measured TGI, listed per entry for reference.
# Test system: A549 NSCLC
# METHOD DESCRIPTION: NCI tumour cell line growth inhibition, 48 h

COMPOUND | SYSTEM TESTED | TGI
CC1=NN(C(=O)Nc2ccc(Cl)cc2)C(=O)C2CCC(=O)N12 (centres undefined) | A549 NSCLC | > 100 µM
Cc1ccc(OCC2OC(n3cnc4nc(Nc5ccc(Cl)c(Cl)c5)nc(Cl)c43)CC2Oc2ccc(C)cc2)cc1 (centres undefined) | A549 NSCLC | > 100 µM
CC(C)(C)c1cc(CCCCCCCC2(CCCCCCCc3cc(C(C)(C)C)cc(C(C)(C)C)c3)OC(COCCOCCCCCC#N)C(COCCOCCCCCC#N)O2)cc(C(C)(C)C)c1 (centres undefined) | A549 NSCLC | > 100 µM

Tell me its TGI given C=C1C(=O)O[C@H]2[C@H](OC(C)=O)[C@@H](C)CCCC3(C)OC3CCC3(CO3)[C@H](O)C[C@@H]12 (some centres undefined) as the entry.
74.8 µM

Tell me its TGI given COc1cc2cc(C(=O)N3CC(CCl)c4ccc([N+](=O)[O-])cc43)[nH]c2c(OC)c1OC (centres undefined) as the entry.
> 100 µM

Tell me its TGI given "C=CCC1(Sc2ccccn2)Sc2ccc3ccccc3c2-c2c(ccc3ccccc23)S1" as the entry.
> 100 µM

Tell me its TGI given "O=C(O)c1ccccc1CC1Cc2cc3c(cc2C1)CCC3" as the entry.
> 100 µM

Tell me its TGI given "Cc1ccc(S(=O)(=O)N2CCN(C=S)CC2)cc1" as the entry.
> 100 µM

----------
# Tested on: OVCAR-5 ovarian
# METHOD DESCRIPTION: NCI tumour cell line growth inhibition, 48 h
ASSAY ENDPOINT: GI50

Look over these answered cases.
CHEMICAL SMILES | GI50
CC(=O)CC/C=C(\C)[C@H](O)[C@H](C)C(=O)O[C@H]1C[C@H](C)C=C2C=C[C@@]3(C)O[C@@H](O)CC(=O)[C@]3(C)[C@H]21 | 1.04 µM
COc1cc(/C=C2\CCC/C(=C\c3ccc(O)c(OC)c3)C2=O)ccc1O | 2.3 µM
CC(C)[C@@](O)(c1ccc2cc(OC(F)F)c(OC(F)F)cc2c1)c1cn[nH]n1 | 21.7 µM

Write GI50 of "Cn1cc(C2=C(c3cn(-c4ccccc4)c4ccccc34)C(=O)NC2=O)c2ccccc21" ; system used: OVCAR-5 ovarian
> 25 µM

Write GI50 of "COc1ccc(/C=C2\COc3ccc(O)c(O)c3C2=O)c(OC)c1OC" ; system used: OVCAR-5 ovarian
3.64 µM
